MEASUREMENT_NOTES: Stability tests of analytes in rat plasma QC samples
Assay type: in vitro ADME
EXPERIMENTAL_PARAMETERS: rat plasma, nominal conc. 20 nM
For each of the molecules below, state its At -80 °C for 48 h, Mean±SD.
Give the value, in units of nM, as a plain number.

Entry CC(C)=CCC[C@](C)(O)[C@H]1CC[C@]2(C)[C@@H]1[C@H](O)C[C@@H]1[C@@]3(C)CC[C@H](O)C(C)(C)[C@@H]3[C@@H](O[C@@H]3O[C@H](CO)[C@@H](O)[C@H](O)[C@H]3O[C@@H]3O[C@@H](C)[C@H](O)[C@@H](O)[C@H]3O)C[C@]12C [Compound C5, Ginsenoside Rg2] — recorded At -80 °C for 48 h, Mean±SD = 19.84

Entry CC(C)=CCC[C@](C)(O[C@@H]1O[C@H](CO)[C@@H](O)[C@H](O)[C@H]1O)[C@H]1CC[C@]2(C)[C@@H]1[C@H](O)C[C@@H]1[C@@]3(C)CC[C@H](O[C@@H]4O[C@H](CO)[C@@H](O)[C@H](O)[C@H]4O[C@@H]4O[C@H](CO)[C@@H](O)[C@H](O)[C@H]4O)C(C)(C)[C@@H]3CC[C@]12C [Compound D2, Ginsenoside Rd] — recorded At -80 °C for 48 h, Mean±SD = 20.86

Entry CC(C)=CCC[C@](C)(O[C@@H]1O[C@H](CO[C@@H]2O[C@H](CO)[C@@H](O)[C@H](O)[C@H]2O)[C@@H](O)[C@H](O)[C@H]1O)[C@H]1CC[C@]2(C)[C@@H]1[C@H](O)C[C@@H]1[C@@]3(C)CC[C@H](O[C@@H]4O[C@H](CO)[C@@H](O)[C@H](O)[C@H]4O[C@@H]4O[C@H](CO)[C@@H](O)[C@H](O)[C@H]4O)C(C)(C)[C@@H]3CC[C@]12C [Compound D5, Ginsenoside Rb1] — recorded At -80 °C for 48 h, Mean±SD = 20.64

Entry CC(C)=CCC[C@](C)(O)[C@H]1CC[C@]2(C)[C@@H]1[C@H](O)C[C@@H]1[C@@]3(C)CC[C@H](O)C(C)(C)[C@@H]3[C@@H](O[C@@H]3O[C@H](CO)[C@@H](O)[C@H](O)[C@H]3O[C@@H]3O[C@H](CO)[C@@H](O)[C@H](O)[C@H]3O)C[C@]12C [Compound C7, Ginsenoside Rf] — recorded At -80 °C for 48 h, Mean±SD = 21.60

Entry CC(C)=CCC[C@](C)(O)[C@H]1CC[C@]2(C)[C@@H]1[C@H](O)C[C@@H]1[C@@]3(C)CC[C@H](O)C(C)(C)[C@@H]3[C@@H](O[C@@H]3O[C@H](CO)[C@@H](O)[C@H](O)[C@H]3O)C[C@]12C [Compound C1, Ginsenoside Rh1] — recorded At -80 °C for 48 h, Mean±SD = 22.38

Entry CC(C)=CCC[C@](C)(O[C@@H]1O[C@H](CO[C@@H]2OC[C@H](O)[C@H](O)[C@H]2O)[C@@H](O)[C@H](O)[C@H]1O)[C@H]1CC[C@]2(C)[C@@H]1[C@H](O)C[C@@H]1[C@@]3(C)CC[C@H](O[C@@H]4O[C@H](CO)[C@@H](O)[C@H](O)[C@H]4O[C@@H]4O[C@H](CO)[C@@H](O)[C@H](O)[C@H]4O)C(C)(C)[C@@H]3CC[C@]12C [Compound D4, Ginsenoside Rb2] — recorded At -80 °C for 48 h, Mean±SD = 20.39

Entry O=C1C=CC[C@@H]2[C@H]3CCC[N+]4([O-])CCC[C@@H](CN12)[C@@H]34 (some centres unmarked) [Compound A2, Oxysophocarpine] — recorded At -80 °C for 48 h, Mean±SD = 21.90

Entry CC(C)(O)[C@@H]1CC[C@](C)([C@H]2[C@@H](O)C[C@@]3(C)[C@@H]4C[C@H](O)[C@H]5C(C)(C)[C@@H](O[C@@H]6OC[C@@H](O)[C@H](O)[C@H]6O[C@@H]6O[C@H](CO)[C@@H](O)[C@H](O)[C@H]6O)CC[C@@]56C[C@@]46CC[C@]23C)O1 [Compound B3, Astragaloside III] — recorded At -80 °C for 48 h, Mean±SD = 19.85

Entry CC(C)=CCC[C@](C)(O[C@@H]1O[C@H](CO)[C@@H](O)[C@H](O)[C@H]1O)[C@H]1CC[C@]2(C)[C@@H]1[C@H](O)C[C@@H]1[C@@]3(C)CC[C@H](O)C(C)(C)[C@@H]3[C@@H](O[C@@H]3O[C@H](CO)[C@@H](O)[C@H](O)[C@H]3O[C@@H]3OC[C@@H](O)[C@H](O)[C@H]3O)C[C@]12C [Compound C8, Notoginsenoside R1] — recorded At -80 °C for 48 h, Mean±SD = 20.74

Entry O=C1CCC[C@@H]2[C@H]3CCCN4CCC[C@@H](CN12)[C@@H]34 [Compound A1, Matrine] — recorded At -80 °C for 48 h, Mean±SD = 21.33

Entry CC(C)=CCC[C@](C)(O[C@@H]1O[C@H](CO[C@@H]2O[C@@H](CO)[C@H](O)[C@H]2O)[C@@H](O)[C@H](O)[C@H]1O)[C@H]1CC[C@]2(C)[C@@H]1[C@H](O)C[C@@H]1[C@@]3(C)CC[C@H](O[C@@H]4O[C@H](CO)[C@@H](O)[C@H](O)[C@H]4O[C@@H]4O[C@H](CO)[C@@H](O)[C@H](O)[C@H]4O)C(C)(C)[C@@H]3CC[C@]12C [Compound D3, Ginsenoside Rc] — recorded At -80 °C for 48 h, Mean±SD = 21.79
